# reported % Binding; entries follow
assay-system: human polyclonal IgG (human)
procedure-details: batch incubation of peptide-Toyopearl resin with human IgG, Bradford of unbound IgG; mg IgG bound relative to WQRHGI
Non-standard residues stand in square brackets, D forms with d. No end group written: not given here. Cit = NC(=O)NCCC[C@H](N)C(=O)O

binder: WQRHI [WQRHI (SEQ ID NO:33)]
% Binding, %: 86.9

binder: WQRHGL [WQRHGL (SEQ ID NO:9)]
% Binding, %: 99.1

binder: WQ[Cit]HGI [WQ(Cit)HGI (SEQ ID NO:27)]
% Binding, %: 0.95

binder: WQRAGI [WQRAGI (SEQ ID NO:28)]
% Binding, %: 62.8
